- EXPERIMENT NOTES: solubility of ODV succinate forms
- Assay type: physicochemical
- CONDITIONS USED: novel hydrate form of the present invention
ENDPOINT NAME: solubility (mg/mL)

CN(C)CC(c1ccc(O)cc1)C1(O)CCCCC1.O=C(O)CCC(=O)O (stereo not shown) [novel hydrate form of ODV succinate, O-desmethyl venlafaxine succinate]; 55
